Parent compound values by entry
measurement notes: Metabolite analysis of arterial plasma (unmetabolized parent fraction), column-switching HPLC
Type: in vivo, rhesus monkeys (Macaca mulatta)
test settings: 90 min, mean ± SD
endpoint name: Parent compound (%)

[[record]]
compound = "Cc1ccccc1C(=CCCN1CCCC(C(=O)O)C1)c1ccccc1[18F] (stereo not shown) [^18F-GATT-44]"
endpoint_name = "Parent compound"
result = 83

[[record]]
compound = "O=C(O)C1CCCN(CCC=C(c2ccccc2[18F])c2ccccc2Cl)C1 (stereo not shown) [^18F-GATT-39]"
endpoint_name = "Parent compound"
result = 85

[[record]]
compound = "Cc1ccccc1C(=COCCN1CCCC(C(=O)O)C1)c1ccc([18F])cc1 (stereo not shown) [^18F-GATT-34]"
endpoint_name = "Parent compound"
result = 83

[[record]]
compound = "Cc1ccccc1C(=COCCN1CCCC(C(=O)O)C1)c1ccccc1[18F] (stereo not shown) [^18F-GATT-31]"
endpoint_name = "Parent compound"
result = 76

